protocol.details: protein stability index of a GFP-peptide fusion (GPS, HEK-293T) (PSI 1-6); higher = more stable;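 also: 24-mer peptide tiles fused after GFP, lentivirally expressed, FACS-sorted into six equal bins by GFP/DsRed ratio, decoded by Illumina sequencing, PSI is the read-weighted mean bin number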
assay.context: treatment: MLN4924 1 uM, 8 h; c terminus: a fixed tail appended
measured.quantity: protein stability index
I'd appreciate a reply containing only the number, no unit.

// returns reported protein stability index for input LALRGRLQLEACGMRRKSLLTRKV [GOLPH3] 2.41

How about NCSGPAPAAKPDPDGGRADEWACE [P3H4] ? 5.44

Quick one: AEPDMDDPAYIAVLVLIFNAAKTC [INTS4] 2.12

Now consider DIELGCSTPLMEAAQEGHLELVKY [ANKRD17] . 4.18

Subsequent entry: LVLLRDGRTLIGFLRSIDQFANLV [LSM1] 2.47

Now this one: EESKEPKEEKQRRRCKPKKPTRRD [GNAS] 5.44

Now the sequence HPPSHWPLIKATVGLIRNLALCPA [CTNNB1] 2.81

Queued: SVRRTRSKIGFGILLSKEPDGVWA [SMAD6] 2.3

Now the same for QLQKILSIPQSSLEPLKAIIQYRL [ACSBG2] 2.36

Try the sequence RKHALERFEQEAVAVDSNLRVREL [CCDC89] 4.47

Same thing, different sequence: IFEETLNILIYETPRGPDPALLEA [KCTD13] 2.63

What do you have for RYFSLSLMSGALAVNQKIDRESLC [PCDHGC5] ? 2.1

And SPNSTPAKTIDTSPPVDLFATASA [SNAP91] ? 4.67

Now the same for WSECSRTCGEGYQFRVVRCWKMLS [ADAMTSL2] 2.19

Entry LLGATKRSMVFKDVLLLGNDYIVP [HNF4A] please 2.3

For CNFSIPEELEFQYRRVNELLLSIL [ZER1] then? 2.32

Param item: AKFDFLTRKHHCRRCGKCFCDRCC [ZFYVE21] 3.45

Then WLAVDGLVSPSNNSKEDAFSGTDW [ATF4] ? 3.76

Another sequence to look at: ETWNPFKLQYQLRNVRERIAKNLV [GOLPH3L] 2.37

Lookup GLWGTTLTENTAENRELYIKTTLR [PKD2L1] 3.2

And the next one, SFINFFTSVLATLVVFAVLGFKAN [SLC6A17] ? 3.06

Ok, now KMKFVIGNGKNLVDFTFVENVVHG [NSDHL] 2.24

For ELRRLFLVQDLVDSLKFAVLMWLL [RTN1] then? 2.2

Now the same for RPEGYNLKDEEGKLKDLSTVTSLQ [PPP2R2C] 5.29

Request: KSYNICFELEDSNEIFTQLYRTLF [PDS5B] 2.87

Record: EAQRASFLQNAVLAYVQASPVRTL [LRRC45] 2.3

Continue with QNQNITLDCEGTTNKMKSPETKQR [KMT2E] 5.3

Follow-up item: PHVIVSTTGPNPFTTLTDRELEEY [ADD1] 4.91

What do you have for IFFMAAFAFSNGYLASLCMCFGPK [SLC29A1] ? 2.52

Another sequence to look at: DDFRSKYQTEQSLRLLVESDINSI [KRT34] 3.94

// query: DQHRLYKQIKAGAYDFPSPEWDTV [CAMK2A] 3.3

Now consider YSSEMKTEDELRVRHLEEENRGIV [AUH] and answer again. 5.35

Now consider FYTAITKKIFKSHLKSSRNSTSVK [P2RY14] . 2.32

Next sequence: DLDFKHHNYKEMRQLMKVVNEMCP [CPXM2] 2.66

How about KKSRSPASAEAPGDSGERSEGEAM [ZNF511] ? 5.57

Consider next the sequence NWLIKYDCPMDSSSSRDTDWVVVK [PI4K2A] in the same way. 3.1

Another sequence to check: DVNEQVMQVLGPEDLQSIIYKLEE [CEP70] 3.7
